- SYSTEM: T1, human C3d (human, UniProt P01024 1002-1303)
- T1 construct: domain: C3d; also called C3d antigen
- T1 sequence (P01024 1002-1303 limits assumed): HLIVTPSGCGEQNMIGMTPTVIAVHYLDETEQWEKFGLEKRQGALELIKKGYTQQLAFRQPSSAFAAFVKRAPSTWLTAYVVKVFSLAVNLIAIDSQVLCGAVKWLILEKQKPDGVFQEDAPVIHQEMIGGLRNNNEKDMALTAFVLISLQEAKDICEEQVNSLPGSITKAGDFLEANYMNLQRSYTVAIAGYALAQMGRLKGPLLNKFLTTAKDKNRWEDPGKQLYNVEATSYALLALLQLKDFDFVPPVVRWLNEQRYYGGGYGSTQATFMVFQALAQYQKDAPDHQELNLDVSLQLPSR
- RUN DESCRIPTION: ELISA, human C3d coated on plate
Please respond with reported EC50 for every item in the list.
Give bare numbers, in pM.

stdin: EC50 for Exemplary anti-C3d construct 78 (antibody, V domains shown, Humanized 3d8b VH4 N54S / VK3; also called Exemplary construct 78) VH: QVQLVQSGAEVKKPGASVKVSCKASGYTFTNYYINWVRQAPGQGLEWIGVINPYSGGTSYNQKFKGRATLTVDTSTSTAYMELSSLRSEDTAVYFCSSPYWGQGTLVTVSS VL: DVVMTQSPLSLPVTLGQPASISCKSSQSLLDSDGKTYLNWFQQRPGQSPRRLIYLVSKLDSGVPDRFSGSGSGTDFTLKISRVEAEDVGVYYCWQGTHFPRTFGGGTKVEIK ?
stdout: 18

stdin: Name the recorded EC50 for Exemplary anti-C3d construct 76 (antibody, V domains shown, Humanized 3d8b VH4 N54H / VK3; also called Exemplary construct 76) VH: QVQLVQSGAEVKKPGASVKVSCKASGYTFTNYYINWVRQAPGQGLEWIGVINPYHGGTSYNQKFKGRATLTVDTSTSTAYMELSSLRSEDTAVYFCSSPYWGQGTLVTVSS VL: DVVMTQSPLSLPVTLGQPASISCKSSQSLLDSDGKTYLNWFQQRPGQSPRRLIYLVSKLDSGVPDRFSGSGSGTDFTLKISRVEAEDVGVYYCWQGTHFPRTFGGGTKVEIK .
stdout: 18

stdin: Any idea what its EC50 is? The binder is Exemplary anti-C3d construct 75 (antibody, V domains shown, Humanized 3d8b VH5 / VK3; also called Exemplary construct 75) VH: QVQLVQSGAEVKKPGASVKVSCKASGYTFTNYYINWVRQAPGQGLEWMGVINPYNGGTSYNQKFKGRVTMTVDTSTSTAYMELSSLRSEDTAVYFCSSPYWGQGTLVTVSS VL: DVVMTQSPLSLPVTLGQPASISCKSSQSLLDSDGKTYLNWFQQRPGQSPRRLIYLVSKLDSGVPDRFSGSGSGTDFTLKISRVEAEDVGVYYCWQGTHFPRTFGGGTKVEIK
stdout: 29

stdin: State the recorded EC50 for this entry: Exemplary anti-C3d construct 77 (antibody, V domains shown, Humanized 3d8b VH5 N54H / VK3; also called Exemplary construct 77) VH: QVQLVQSGAEVKKPGASVKVSCKASGYTFTNYYINWVRQAPGQGLEWMGVINPYHGGTSYNQKFKGRVTMTVDTSTSTAYMELSSLRSEDTAVYFCSSPYWGQGTLVTVSS VL: DVVMTQSPLSLPVTLGQPASISCKSSQSLLDSDGKTYLNWFQQRPGQSPRRLIYLVSKLDSGVPDRFSGSGSGTDFTLKISRVEAEDVGVYYCWQGTHFPRTFGGGTKVEIK
stdout: 11

stdin: Given the binder Exemplary anti-C3d construct 79 (antibody, V domains shown, Humanized 3d8b VH5 N54S / VK3; also called Exemplary construct 79) VH: QVQLVQSGAEVKKPGASVKVSCKASGYTFTNYYINWVRQAPGQGLEWMGVINPYSGGTSYNQKFKGRVTMTVDTSTSTAYMELSSLRSEDTAVYFCSSPYWGQGTLVTVSS VL: DVVMTQSPLSLPVTLGQPASISCKSSQSLLDSDGKTYLNWFQQRPGQSPRRLIYLVSKLDSGVPDRFSGSGSGTDFTLKISRVEAEDVGVYYCWQGTHFPRTFGGGTKVEIK , what is its reported EC50?
stdout: 20

Next item in the queue.
stdin: Quick one: EC50 of Exemplary anti-C3d construct 74 (antibody, V domains shown, Humanized 3d8b VH4 / VK3; also called Exemplary construct 74) VH: QVQLVQSGAEVKKPGASVKVSCKASGYTFTNYYINWVRQAPGQGLEWIGVINPYNGGTSYNQKFKGRATLTVDTSTSTAYMELSSLRSEDTAVYFCSSPYWGQGTLVTVSS VL: DVVMTQSPLSLPVTLGQPASISCKSSQSLLDSDGKTYLNWFQQRPGQSPRRLIYLVSKLDSGVPDRFSGSGSGTDFTLKISRVEAEDVGVYYCWQGTHFPRTFGGGTKVEIK ?
stdout: 17
